Form field: Ki (one value per entry).
# target_system: T1, human GIP receptor (human, UniProt P48546 22-466)
# T1 construct: whole, on cells; also called hGIPR; human glucose-dependent insulinotropic polypeptide receptor
# T1 sequence (looked up): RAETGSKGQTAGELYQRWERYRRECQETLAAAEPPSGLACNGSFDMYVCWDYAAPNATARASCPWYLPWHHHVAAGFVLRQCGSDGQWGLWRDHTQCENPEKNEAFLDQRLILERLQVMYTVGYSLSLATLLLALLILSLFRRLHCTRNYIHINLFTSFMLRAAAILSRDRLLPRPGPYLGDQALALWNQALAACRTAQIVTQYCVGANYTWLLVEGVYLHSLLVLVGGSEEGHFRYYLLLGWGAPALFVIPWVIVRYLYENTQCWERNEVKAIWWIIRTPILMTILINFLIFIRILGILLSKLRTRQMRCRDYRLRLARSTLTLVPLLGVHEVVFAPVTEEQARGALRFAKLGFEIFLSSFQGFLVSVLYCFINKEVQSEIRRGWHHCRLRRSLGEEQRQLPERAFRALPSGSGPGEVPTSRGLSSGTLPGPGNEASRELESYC
# run_description: SPA competition vs [125I]-GIP, hGIPR membranes
endpoint_label: Ki (nM)

binder	readout_value
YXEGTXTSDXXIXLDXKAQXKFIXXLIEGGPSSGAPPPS (Aib2, αMeF(2F)6, 4Pal10, Aib11, αMeL13, Orn16, K17(Z1), Aib20, K21(Z1), D-Glu24, αMeY25, C-term NH2; Z1=AEEA2-(γ-Glu)-CO-(CH2)10-CH3)	0.0162
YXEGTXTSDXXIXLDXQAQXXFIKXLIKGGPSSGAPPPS (Aib2, αMeF(2F)6, 4Pal10, Aib11, αMeL13, Orn16, Aib20, Orn21, K24(Z1), αMeY25, K28(Z1), C-term NH2; Z1=AEEA-Ahx-(γ-Glu)-(10-(4-carboxyphenoxy)decanoyl))	0.013
YXEGTXTSDXXIXLDXKAQXKFIXXLIXGGPSSGAPPPS (Aib2, αMeF(2F)6, 4Pal10, Aib11, αMeL13, Orn16, K17(Z1), Aib20, K21(Z1), D-Glu24, αMeY25, Orn28, C-term NH2; Z1=AEEA3-(γ-Glu)-CO-(CH2)10-CH3)	0.0175
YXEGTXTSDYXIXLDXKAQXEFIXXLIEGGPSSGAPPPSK (Aib2, αMeF(2F)6, Aib11, αMeL13, Orn16, K17(Z1), Aib20, D-Glu24, αMeY25, K40(Z1), C-term NH2; Z1=AEEA2-(γ-Glu)-CO-(CH2)10-CH3)	0.0228
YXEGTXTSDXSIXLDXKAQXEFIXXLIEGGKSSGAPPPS (Aib2, αMeF6, 4Pal10, αMeL13, Orn16, K17(Z1), Aib20, D-Glu24, αMeF25, K31(Z1), C-term NH2; Z1=AEEA2-(γ-Glu)-CO-(CH2)12-CO2H)	0.0621
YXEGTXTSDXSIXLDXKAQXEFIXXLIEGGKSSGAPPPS (Aib2, αMeF(2F)6, 4Pal10, αMeL13, Orn16, K17(Z1), Aib20, D-Glu24, αMeY25, K31(Z1), C-term NH2; Z1=(εK)-(γ-Glu)-(γ-Glu)-CO-(CH2)12-CO2H)	0.234
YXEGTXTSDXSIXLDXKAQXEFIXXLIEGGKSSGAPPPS (Aib2, αMeF(2F)6, 4Pal10, αMeL13, Orn16, K17(Z1), Aib20, D-Glu24, αMeY25, K31(Z1), C-term NH2; Z1=AEEA2-(εK)-(γ-Glu)-CO-(CH2)12-CO2H)	0.131
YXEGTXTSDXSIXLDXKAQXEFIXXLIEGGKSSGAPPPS (Aib2, αMeF(2F)6, 4Pal10, αMeL13, Orn16, K17(Z1), Aib20, D-Glu24, αMeY25, K31(Z1), C-term NH2; Z1=(εK)-AEEA2-(γ-Glu)-CO-(CH2)12-CO2H)	0.171
YXEGTXTSDXXIXLDXIAQXEFIKXLIKGGPSSGAPPPS (Aib2, αMeF(2F)6, 4Pal10, αMeS11, αMeL13, Orn16, Aib20, K24(Z1), αMeY25, K28(Z1), C-term NH2; Z1=AEEA2-(γ-Glu)-CO-(CH2)12-CO2H)	0.0491
YXEGTXTSDKSIXLDXKAQXEFIXXLIEGGPSSGAPPPS (Aib2, αMeF(2F)6, K10(Z1), αMeL13, Orn16, K17(Z1), Aib20, D-Glu24, αMeY25, C-term NH2; Z1=AEEA2-(γ-Glu)-CO-(CH2)14-CH3)	0.0505
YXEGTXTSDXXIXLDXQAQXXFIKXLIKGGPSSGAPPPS (Aib2, αMeF(2F)6, 4Pal10, Aib11, αMeL13, Orn16, Aib20, Orn21, K24(Z1), αMeY25, K28(Z1), C-term NH2; Z1=AEEA-Trx-(γ-Glu)-CO-(CH2)12-CO2H)	0.0376
YXEGTXTSDVXIXLDXKAQXEFIXXLIEGGKSSGAPPPS (Aib2, αMeF(2F)6, αMeS11, αMeL13, Orn16, K17(Z1), Aib20, D-Glu24, αMeY25, K31(Z1), C-term NH2; Z1=AEEA2-(γ-Glu)-CO-(CH2)12-CO2H)	0.161
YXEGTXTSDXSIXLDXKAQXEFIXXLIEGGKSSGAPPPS (Aib2, αMeF(2F)6, 4Pal10, αMeL13, Orn16, K17(Z1), Aib20, D-Glu24, αMeY25, K31(Z1), C-term NH2; Z1=AEEA2-(10-(4-carboxyphenoxy)decanoyl))	0.0489

// data source = patent US20230265151A1
